So I've got a bunch of compounds here, and I need their TGI values.
- Tested on: HT29 colon
- experimental.protocol: NCI tumour cell line growth inhibition, 48 h

{"compound": "CCCCNNC(=O)c1ccc(Br)cc1", "recorded.result": "> 39 µM"}
{"compound": "O=C(/C=C(\\O)C(=O)O)/C=C(\\O)c1ccccc1", "recorded.result": "> 100 µM"}
{"compound": "N#CC(CCN1CCC(Nc2ccccc2)(c2nnnn2C2CCCCC2)CC1)(c1ccccc1)c1ccccc1", "recorded.result": "> 100 µM"}
{"compound": "C[C@@H]1[C@@H](C)C(c2ccccc2)O[Si]1(C(C)(C)C)C(C)(C)C (stereo not given in full)", "recorded.result": "31 µM"}
{"compound": "c1ccc(-c2nn3c(c2-c2ccnc4cc(OCCN5CCOCC5)ccc24)CCC3)nc1", "recorded.result": "> 100 µM"}
{"compound": "CCCC[C@@H](C)/C=C1\\CN2CCC[C@H]2[C@@](C)(OCc2ccccc2)[C@@H]1O", "recorded.result": "> 50 µM"}

// each listed compound needs a value for TGI
1. O=c1cccccc1[O-].O=c1cccccc1[O-].O=c1cccccc1[O-].[Eu+3]
2. C=CCn1c(=S)sc2c(C(=O)OCC)c3c(C)cc(C)cn3c2c1=O
3. CC(C)(C)OC(=O)NC12C3C4C1C1C2C3C41NC(=O)OC(C)(C)C (stereo not given)
4. O=C1CCCNn2c(nc3ncccc3c2=O)N1

Result string:
1. > 100 µM
2. > 100 µM
3. > 100 µM
4. > 100 µM

* * *

- System: SR leukemia
- experimental.protocol: NCI tumour cell line growth inhibition, 48 h; in the data active = GI50 below about 0.43 µM; inactive = the rest
Respond using exactly one of the listed classes: active, inactive

# count of solved cases: 3
{"compound": "CCCCC(SC(=S)N1CCCC1)C(=O)Nc1nc(CC(=O)OCC)cs1 (centres undefined)", "class.label": "inactive"}
{"compound": "C=C(C)[C@@H]1CCC=C2CC[C@]3(C)[C@H](CC[C@@H]4[C@@]5(C)CCCNC(C)(C)[C@@H]5CC[C@]43C)[C@H]21", "class.label": "inactive"}
{"compound": "Oc1c(C(Nc2ccccc2Br)c2ccccc2)ccc2cccnc12 (centres undefined)", "class.label": "inactive"}

With those in mind, consider the next compound.
Query string: Name the outcome recorded for Cc1ccc(/C=C(\C#N)c2cc3ccccc3n2C)cc1 in the assay.
Result string: active

* * *

- System: CAKI-1 renal
- experimental.protocol: NCI tumour cell line growth inhibition, 48 h
readout.name: TGI

{"compound": "CCCC[C@@H](C)/C=C1\\CN2CCC[C@H]2[C@@](C)(OCc2ccccc2)[C@@H]1O", "recorded.result": "> 50 µM"}
{"compound": "O=C1C2C(C(=O)N1c1ccccc1)C1c3ccccc3C2C2C(=O)N(c3ccccc3)C(=O)C21 (stereo not given)", "recorded.result": "> 100 µM"}
{"compound": "CCC(=O)N1C/C(=C/c2ccc(Cl)cc2)C(=O)/C(=C/c2ccc(Cl)cc2)C1", "recorded.result": "7.85 µM"}
{"compound": "CN1CCN(Cc2c[nH]c3c2C(=O)c2c(c(O)c4ccccc4c2O)C3=O)CC1", "recorded.result": "18.8 µM"}
{"compound": "CCN1C/C(=C\\c2ccc(Cl)cc2)c2nc(N)c(C#N)c(-c3ccc(Cl)cc3)c2C1", "recorded.result": "> 100 µM"}

// each listed compound needs a value for TGI
1. CC(C)(C)OC(=O)N/C(C=O)=C\C1CCCCC1
2. Nc1cc2c(c3ccccc13)C(CCl)CN2C(=O)c1cc2cc(NC(=O)Nc3ccc4[nH]c(C(=O)N5CC(CCl)c6c5cc(N)c5ccccc65)cc4c3)ccc2[nH]1 (stereo not given)
3. Cc1ccc(S(=O)(=O)N/N=C(\c2nc3ccc(Cl)cc3[nH]c2=O)C(O)c2ccco2)cc1 (stereo not given)
4. COc1cc2cc(C(=O)N3CC(COS(C)(=O)=O)c4ccc(NC(=O)OCc5ccccc5)cc43)[nH]c2c(OC)c1OC (stereo not given)
5. Clc1sc(Cl)c2c1[C@@H](Cl)C[C@@H]2Cl

Result string:
["46.9 µM", "0.444 µM", "> 100 µM", "> 100 µM", "> 100 µM"]

// each listed compound needs a value for TGI
1. C#CC1(O)CCC2C3CCc4cc(Oc5nc(F)nc(-c6c7ccccc7c7n6CCS7)n5)ccc4C3CC[C@@]21C (stereo not given in full)
2. COc1ccc(C#Cn2nnc3ccccc32)cc1
3. O=C(O)C(Cc1cnc[nH]1)N1C(=O)c2ccccc2C1=O (stereo not given)

Result string:
["73 µM", "> 100 µM", "> 100 µM"]

* * *

So I've got a bunch of compounds here, and I need their log10 of TGI values.
- Test system: CCRF-CEM leukemia
- experimental.protocol: NCI tumour cell line growth inhibition, 48 h
# values: log10(TGI), units µM

{"compound": "CC1=CC2C(C(O)CC3(C)C2CC(C)C32OCOC23COCO3)C2(C)C/C(=C/O)C(=O)C=C12 (stereo not given)", "test.system": "CCRF-CEM leukemia", "log10 of TGI": 0.56}
{"compound": "Cc1c(C(=O)C/C(=N/NC(=O)c2ccccc2)C(=O)Nc2ccc(Cl)cc2)[n+](=O)c2ccccc2n1[O-]", "test.system": "CCRF-CEM leukemia", "log10 of TGI": 1.87}
{"compound": "O=S(=O)(O)O", "test.system": "CCRF-CEM leukemia", "log10 of TGI": 2.84}
{"compound": "O=C1CCc2c(sc3[nH]c(=S)n(-c4cc(C(F)(F)F)cc(C(F)(F)F)c4)c(=O)c23)C1", "test.system": "CCRF-CEM leukemia", "log10 of TGI": 0.76}

Next:
Query string: Can you look up the measured log10 of TGI of FC(F)(F)c1cc(N(C2c3ccccc3C=Cc3ccccc32)P(Cl)Cl)cc(C(F)(F)F)c1 for me?
Result string: 1.92

* * *

- Test system: IGROV1 ovarian
- experimental.protocol: NCI tumour cell line growth inhibition, 48 h; in the data active means GI50 below about 0.43 µM; inactive means the rest
Respond using exactly one of the listed classes: active, inactive

{"smiles.data": "Cc1ccc(/C=C(\\C#N)c2cc3ccccc3n2C)cc1", "test.system": "IGROV1 ovarian", "class.label": "inactive"}
{"smiles.data": "O=c1c2cc(C(F)(F)F)ccc2sc2c(NCCCNCCO)nc3ccccc3c12", "test.system": "IGROV1 ovarian", "class.label": "inactive"}
{"smiles.data": "c1ccc(-c2nn3c(c2-c2ccnc4cc(OCCN5CCOCC5)ccc24)CCC3)nc1", "test.system": "IGROV1 ovarian", "class.label": "inactive"}
{"smiles.data": "CN(C)c1ccc(Nc2c3ccccc3nc3ccccc23)cc1", "test.system": "IGROV1 ovarian", "class.label": "inactive"}
{"smiles.data": "O=C(NCCN1CCOCC1)OCc1nc2nc(Cl)nc(N3CCOCC3)c2[nH]1", "test.system": "IGROV1 ovarian", "class.label": "inactive"}

Query string: Name the outcome recorded for CCC[CH2][Sn]([CH2]CCC)([O]C(=O)c1cc(OC)c(OC)cc1OC)[O][Sn]([CH2]CCC)([CH2]CCC)[O]C(=O)c1cc(OC)c(OC)cc1OC in the assay.
Result string: inactive

Query string: Record: O=C(Oc1cccc(Cl)c1)c1ccccc1Nc1ccnc(C(F)(F)F)c1
Result string: inactive

Query string: Record: NC(=N\N=C/c1ccc(O)cc1)/C(N)=N\N=C/c1ccc(O)cc1
Result string: inactive

* * *

- Tested on: MDA-N
- experimental.protocol: NCI tumour cell line growth inhibition, 48 h
*1 amine or outer side, *2 acyl side, *3 side chain or, on linkers, in order; H or OH if unused. Where a SMILES comes first, the peptide text is derived from it. Bridges are numbered along the chain shown (N, C = ends). Roman numbers before positions name the chains, in order. [ ]: non-standard residue; d: D form. Actinocin(9to1) = Cc1c2oc3c(C)ccc(C(=O)[*:1])c3nc-2c(C(=O)[*:2])c(N)c1=O; NMeV = CN[CH](C(=O)O)C(C)C; Sar = CNCC(=O)O
readout.name: TGI

Known TGI results, listed for orientation:
{"compound": "O=C1c2cc(Cc3ccccc3)c(=O)c(Cc3ccccc3)cc2C(=O)c2cc(Cc3ccccc3)c(=O)c(Cc3ccccc3)cc21", "test.system": "MDA-N", "TGI": "> 100 µM"}
{"compound": "CCOC(=O)c1ccc(Nc2nc3ccccc3nc2-c2cccs2)cc1", "test.system": "MDA-N", "TGI": "> 100 µM"}
{"compound": "COC(=O)C1=C(OC(=O)/C(=C/c2ccccc2)c2ccc(OC)cc2)C(C(=O)OC)[C@@]2(O)[C@@H](C(=O)OC)[C@H](C)C[C@@H]1[C@@H]2C(=O)OC (stereo partly drawn)", "test.system": "MDA-N", "TGI": "> 100 µM"}
{"compound": "Fc1cccc(F)c1C1SCc2nc3cc(Cl)c(Cl)cc3n21 (stereo not drawn)", "test.system": "MDA-N", "TGI": "> 100 µM"}
{"compound": "COC(=O)[C@H](Cc1c[nH]c2ccccc12)NP(=O)(OCCC#N)OCC1OC(n2cc(C)c(=O)[nH]c2=O)CC1N=[N+]=[N-] (stereo partly drawn)", "test.system": "MDA-N", "TGI": "> 100 µM"}

// each listed compound needs a value for TGI
1. COC(C/C(=C/CO[Si](C(C)C)(C(C)C)C(C)C)C(=O)N(COCC[Si](C)(C)C)c1ccccc1I)OC
2. C1=NCCNCCNCCN=Cc2ccc(cc2)OCc2cccc(n2)COc2ccc1cc2
3. Cc1cccc2c(N)c3cccc(C(=O)NCC[N+](C)(C)Cc4ccc([N+](=O)[O-])s4)c3nc12
4. N#C/C(=C/C=C/c1ccco1)C(N)=O
5. CN1C(=O)c2ccc3ccccc3c2C1=O
6. N#Cc1nc2cc(Cl)ccc2nc1N1CCN(c2ccc([N+](=O)[O-])cc2)CC1
7. O=[N+]([O-])c1ccc(NN=C2CN3CCN(C2)c2ccccc23)c([N+](=O)[O-])c1
8. O=C(Nc1sccc1S(=O)(=O)c1ccc(Cl)cc1)c1ccc(F)cc1F

Result string:
1. > 100 µM
2. > 100 µM
3. 49.9 µM
4. > 10 µM
5. > 100 µM
6. > 100 µM
7. > 100 µM
8. > 100 µM

// each listed compound needs a value for TGI
1. ClC(Cl)(Cl)C1CCOC1n1nnc2ccccc21 (stereo not drawn)
2. Cc1c2oc3c(C)ccc(C(=O)NC4C(=O)NC(Cc5ccccc5)C(=O)N5CCCC5C(=O)N(C)CC(=O)N(C)C(C(C)C)C(=O)OC4C)c3nc-2c(C(=O)NC2C(=O)NC(Cc3ccccc3)C(=O)N3CCCC3C(=O)N(C)CC(=O)N(C)C(C(C)C)C(=O)OC2C)c(N)c1=O (stereo not drawn) (I: TFP[Sar][NMeV] / II: TFP[Sar][NMeV]; ester I:1-I:C, II:1-II:C; linker I:N-II:N via Actinocin(9to1); configuration not given here)
3. CN(C)Cc1ccc(-c2cc3onc(-c4ccccc4)c3c(=O)n2C)cc1

Result string:
["> 100 µM", "0.0442 µM", "44.5 µM"]

// each listed compound needs a value for TGI
1. COc1cccc(N=N/C(=N/NC(=O)c2ccc(C)cc2)c2ccc(N(CCC#N)CCC#N)cc2OC)c1
2. O=c1[nH]c(=O)n(C2CC(O)C(CO)O2)cc1Oc1ccccc1 (stereo not drawn)

Result string:
["> 100 µM", "> 100 µM"]

The measured values listed here are drawn from PubChem BioAssay (NCI).
